Entries annotated with measured IC50
# System: LPS-induced NO production in RAW264.7 macrophages
# assay-text: LPS-induced nitrite (NO) production in RAW264.7 macrophages, Griess reaction
# Assay type: cell-based, mouse
# test-parameters: Mus musculus, RAW264.7; together with LPS (100 μg/mL) for 24 hours, n=3; read-out: IC50 in inhibiting LPS-induced NO production
# Method: Cells. RAW264.7, a mouse macrophage cell line, was obtained from American Type Culture Collection. […] Nitrite assay. The nitrite concentration in the medium was measured as an indicator of NO production according to the Griess reaction (Kim et al., J. Immunol. 153: 4741-4748). […]
outcome-measure: IC50 (µM)

structure-notation	outcome-measure	units-text	result
O=C(O)[C@H]1O[C@@H](Oc2cc3oc(-c4ccccc4)cc(=O)c3c(O)c2O)[C@H](O)[C@@H](O)[C@@H]1O	IC50	µM	15
O=c1cc(-c2ccccc2)oc2cc(O)c(O)c(O)c12	IC50	µM	19.4

====

# Tested on: porcine cerebral arteries
# assay-text: In vitro tissue bath vasorelaxation of precontracted porcine cerebral arteries
# test-parameters: Sus scrofa, intact endothelium, pre-contracted with U-46619 (1 μM), n=4; read-out: EC50 of relaxation

compound	EC50 / µM
COc1c(O)cc2oc(-c3ccccc3)cc(=O)c2c1O [oroxylin A, 5,7-dihydroxy-6-methoxy flavone]	7.9
